Molecular target: UniProtKB Q8ILY1
Sequence (Q8ILY1 entry or part of it): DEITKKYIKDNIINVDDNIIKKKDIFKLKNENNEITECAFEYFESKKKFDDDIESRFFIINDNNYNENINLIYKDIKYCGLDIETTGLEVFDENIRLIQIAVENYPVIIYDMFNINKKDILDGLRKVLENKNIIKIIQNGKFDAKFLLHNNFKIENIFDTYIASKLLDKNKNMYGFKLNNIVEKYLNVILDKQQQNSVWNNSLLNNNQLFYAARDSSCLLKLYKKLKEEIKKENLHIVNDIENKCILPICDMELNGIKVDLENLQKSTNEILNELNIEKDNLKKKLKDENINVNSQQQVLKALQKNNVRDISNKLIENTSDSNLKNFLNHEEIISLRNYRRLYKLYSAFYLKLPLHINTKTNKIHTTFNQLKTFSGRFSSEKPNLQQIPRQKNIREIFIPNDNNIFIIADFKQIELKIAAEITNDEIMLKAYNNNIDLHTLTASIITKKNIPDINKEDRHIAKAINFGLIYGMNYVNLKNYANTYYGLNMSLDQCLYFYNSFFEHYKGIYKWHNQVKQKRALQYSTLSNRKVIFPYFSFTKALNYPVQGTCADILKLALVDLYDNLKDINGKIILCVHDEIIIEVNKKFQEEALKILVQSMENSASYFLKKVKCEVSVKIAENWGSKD
Assay: Fluorescence-based high-throughput DNA polymerase assay (molecular beacon), primary screen and dose-response
Type: biochemical
Settings: DRC-1; read at 10'; concentration 5
Decide by % inhibition Apo pol 10' 5: equal to or exceeding 20% means yes (1), less means no (0).

>>> df
                                   molecule  categorylabel
0  CC(=O)OCC1=C(C(=O)[O-])N2C(=O)[C@@H](NC(=O)Cc3cccs3)[C@H]2SC1.[Na+] [Molecule 73]        yes (1)

Problem: // inclusive: % inhibition Apo pol 10' 5 at least 20%? input: Cc1cccc(-c2noc(C(=O)NNC(=O)C(Cl)(Cl)Cl)n2)c1 [KU0266208]
Solution: no (0)

Problem: Record: Cn1nc(-c2nc(-c3ccccc3)no2)c2c1CCN(C(=O)Cc1cccs1)C2 [Molecule 58]
Solution: no (0)

Problem: Record: CCCc1ccc(Oc2coc3cc(OC)ccc3c2=O)cc1 [KU0193249]
Solution: no (0)

Origin of the recorded values: paper PMC9090415
